Provide the recorded SPOT peptide array binding signal intensity for the entries that follow.
# target-or-test-system: AgCyk3
# procedure-text: SPOT peptide array binding signal intensity (averaged, normalized) (arbitrary units (background-subtracted, floor 0; scale differs between SH3 domains)); higher = stronger binding of the SH3 domain to the peptide

LFMKGTPEFPKSGFS
≤ 0
NRARYLPQNPDIIAG
≤ 0
LSKRLPLRFPEHTSS
≤ 0
PSPSSSPPPIPKTAN
1
VQPTAAPATPPRHIS
≤ 0
LKHGWKPLRPIKLIS
≤ 0

Okay, next one:
Answer with the recorded SPOT peptide array binding signal intensity of "RKNRAPPQRPRFNRD" only. 16

Cited source: the supplement of paper PMC4466140
